System: SF-295 CNS
experiment_notes: NCI-60 one-dose screen, 48 h
experimental_conditions: 10 µM unless noted
About 83,000 compounds went through this panel and 20% of them were active in at least one assay; those are over-represented in the sample as a whole. Active and inactive are the calls of the source. Rule for the calls: active = growth percent below 10; inactive = the rest.
Form entry, call: pick from active, inactive

Answered cases to consult:
[
  {
    "molecule": "CCCCCCCCCCOC(C)=O",
    "label": "inactive"
  },
  {
    "molecule": "COC(=O)[C@H]1[C@H]2C[C@@H]3c4[nH]c5cc(OC)ccc5c4CCN3C[C@H]2C[C@@H](OC(=O)/C=C/c2cc(OC)c(OC)c(OC)c2)[C@@H]1OC",
    "label": "inactive"
  },
  {
    "molecule": "O=C(N/N=C/c1cccc(O)c1O)c1ccccc1",
    "label": "active"
  },
  {
    "molecule": "Cc1ccc(-c2c3c(N)c4c(nc3nc3c2c(C)nn3-c2ccccc2)CCC4)cc1",
    "label": "inactive"
  },
  {
    "molecule": "O=c1c2ccccc2c2nccn2c2cc(Cl)ccc12",
    "label": "inactive"
  },
  {
    "molecule": "O=C(COc1ccc(/C=C2\\Oc3ccc4ccccc4c3C2=O)cc1)c1ccc(Cl)cc1",
    "label": "inactive"
  },
  {
    "molecule": "COc1ccc([N+](=O)[O-])c(S(=O)(=O)c2ccc(Cl)cc2)n1",
    "label": "inactive"
  },
  {
    "molecule": "N#Cc1c(-c2ccccc2)cc(-c2ccccc2)n(CCCCCCC(=O)O)c1=O",
    "label": "inactive"
  },
  {
    "molecule": "Cc1ccccc1NC(=O)NC(CC(N)=O)c1ccc2c(c1)nc(-c1cccc(Oc3ccc(C(C)(C)C)cc3)c1)n2CCCN1CCCCC1C (stereo unspecified)",
    "label": "inactive"
  },
  {
    "molecule": "O=Nc1c2cccnc2n2nnc3ccc(Cl)cc3c12",
    "label": "inactive"
  }
]

Qu. // param item: COc1ccc(-c2nc3sc4c(c3c(=O)[nH]2)CCCCCC4)cc1 ; yields the recorded call
Ans. inactive

Qu. Per the assay record, what outcome was assigned to COc1cccc(-c2nc(-c3ccc(N)cc3)co2)c1 ?
Ans. inactive

Qu. Per the records of this test, what outcome belongs to Cc1sc2nc3c4ccccc4c(NCCCN(C)C)nn3c(=O)c2c1C ?
Ans. inactive

Qu. Assay outcome for O=C(/C=C/c1cccc(Nc2ccnc3cc(Cl)ccc23)c1)c1ccc(Cl)cc1 : what was it?
Ans. inactive

Qu. // return assay outcome for COc1cc(/C=C2\CN(C)CC3=C2Nc2nc(SC)[nH]c(=O)c2C3c2cc(OC)c(OC)c(OC)c2)cc(OC)c1OC (stereo unspecified)
Ans. inactive

* * *

Test system: NCI-H322M lung
experiment_notes: NCI-60 one-dose screen, 48 h
experimental_conditions: 10 µM unless noted
Compounds without any hit were thinned out: in the full panel of roughly 83,000, 20% have a hit. Active and inactive are the calls of the source. Rule for the calls: active = growth percent below 10; inactive = the rest.
Hello, when you answer, please use one of the following outcomes: class 1 = active, class 0 = inactive

Qu. Status in this test for COc1cc(C2CC(C3C(=O)N(C)C(=O)N(C)C3=O)=NN2C=O)cc(OC)c1OC (stereo not drawn) ?
Ans. class 0

* * *

Test system: NCI-H226 lung
experiment_notes: NCI-60 one-dose screen, 48 h (100 = growth as untreated, 0 = no growth, -100 = all killed)
experimental_conditions: 10 µM unless noted
The panel holds about 83,000 compounds, 20% with a hit somewhere; the sample as a whole holds those more often.
Param label: returns condition met when growth < 80%, returns condition not met otherwise, including exact equality.

[
  {
    "compound": "O=c1oc2c(cc1-c1ccc([N+](=O)[O-])cc1)C(O)Oc1ccccc1-2 (stereo not given)",
    "label": "condition not met"
  }
]

Qu. Consider CCCCc1ccc(C(N)=O)nc1 . Does its growth lie strictly below 80%?
Ans. condition not met

Qu. Does this compound meet the criterion growth < 80%? COc1cc(C2=NN(C=O)C(c3cccc(Nc4ccnc5cc(Cl)ccc45)c3)C2)cc(OC)c1OC (stereo not given)
Ans. condition met

Qu. Lab log: compare recorded growth with 80%; is it strictly lower for CCOC(=O)C1=CCC(n2cc(C)c(=O)[nH]c2=O)O1 (stereo not given) ?
Ans. condition not met

* * *

System: COLO 205 colon
experiment_notes: NCI-60 one-dose screen, 48 h
experimental_conditions: 10 µM unless noted
This is part of a sample that, as a whole, favours compounds with a hit. Of some 83,000 tested, about 20% had one in any assay. The source made the active and inactive calls. The calls were made as follows: active = growth percent below 10; inactive = the rest.
Please state which outcome applies, choosing from 1 (yes) = active, 0 (no) = inactive

# count of solved cases: 4
[
  {
    "compound": "COc1ccccc1-n1c(-c2ccc(O)cc2C)cn2c3c(=O)[nH]c(=O)n(C)c3nc12",
    "label": "0 (no)"
  },
  {
    "compound": "CCOC(=O)/C(=C/CC/C(C)=C/CC/C(C)=C/CCc1ccoc1)CC(=O)N1CCCCC1",
    "label": "1 (yes)"
  },
  {
    "compound": "N#CSCC1CC(O)(c2ccccc2)C(c2ccccc2)C(c2ccc(Cl)cc2)O1 (stereo not given)",
    "label": "1 (yes)"
  },
  {
    "compound": "CC(=O)N1N=C(c2ccc3c(c2)OCO3)CC1c1c(C)nn(-c2ccccc2)c1N(C)Cc1ccccc1 (stereo not given)",
    "label": "0 (no)"
  }
]

Qu. State the result this test recorded for CCCCCCCCCCN1CCC(N2CCCCC2)CC1 .
Ans. 1 (yes)

Qu. Name the outcome recorded for C=C1CCC2C3(C)COC(c4ccccc4)OC3CCC2(C)C1C/C=C1/C(=O)OCC1OC(C)=O (stereo not given) in the assay.
Ans. 0 (no)

Qu. Assay result, entry OCCN1CCN(CCCN2c3ccccc3Sc3ccc(C(F)(F)F)cc32)CC1 — outcome?
Ans. 1 (yes)

Qu. Fill in: this test's call for FC(F)(F)c1ccc(-c2cnc(-c3nn[nH]n3)nc2NC2CCCCCC2)cc1 is ___
Ans. 0 (no)

Qu. How did this test come out for O=C(COc1ccc(/C=C2\Cc3ccccc3C2=O)cc1)c1ccc(Cl)cc1 ?
Ans. 0 (no)

Qu. // return assay outcome for NS(=O)(=O)c1cc(C2(O)NC(=O)c3ccccc32)ccc1Cl (stereo not given)
Ans. 0 (no)

* * *

Test system: UACC-62 melanoma
experiment_notes: NCI-60 one-dose screen, 48 h (100 = growth as untreated, 0 = no growth, -100 = all killed)
experimental_conditions: 10 µM unless noted
About 83,000 compounds went through this panel and 20% of them were active in at least one assay; those are over-represented in the sample as a whole.
quantity_name: growth (%)
Field format: number, assumed %, no unit text.

[
  {
    "smiles_str": "CCCCCN(CCCCC)CCCNc1c2c(nc3ccc(Cl)cc13)CCCC2",
    "unit_tag": "%",
    "growth": 51
  },
  {
    "smiles_str": "O=C1C=CC(=O)N1c1ccccc1N1C(=O)C=CC1=O",
    "unit_tag": "%",
    "growth": 87.4
  }
]

Okay, next one:
Quick note, growth for [N-]=[N+]=NCc1cccc(/C(O)=C/C(=O)C(=O)O)c1 landed at 92.4

* * *

Test system: SW-620 colon
experiment_notes: NCI-60 one-dose screen, 48 h
experimental_conditions: 10 µM unless noted
About 83,000 compounds went through this panel and 20% of them were active in at least one assay; those are over-represented in the sample as a whole. The source made the active and inactive calls. Rule for the calls: active = growth percent below 10; inactive = the rest.
// one of YES (active), NO (inactive), no free text

Would you please look over these solved cases?
[
  {
    "compound": "O=C1N=C(N2CCOCC2)S/C1=C\\c1cn(-c2ccccc2)nc1-c1ccccc1",
    "label": "NO"
  },
  {
    "compound": "FCc1ncc(-c2ccc(C(F)(F)F)cc2)c(NC2CCCCCC2)n1",
    "label": "YES"
  },
  {
    "compound": "CCOC(=O)Nc1ccc2c3c(cccc13)-c1ccccc1-2",
    "label": "NO"
  },
  {
    "compound": "O=C(O)C1CCN(S(=O)(=O)c2ccc(-c3ccccc3)cc2)CC1",
    "label": "NO"
  }
]

Qu. Recorded test outcome, item CC(=O)c1nn(-c2ccccc2)c(=Nc2ccccc2)cc1C
Ans. NO

Qu. Name the outcome recorded for CCc1nn2c(-c3ccc(Cl)cc3C)c(-c3cc(OC)c(OC)c(OC)c3)nc2s1 in the assay.
Ans. NO

* * *

Recorded growth values for a group of compounds are listed next.
Tested on: MALME-3M melanoma
experiment_notes: NCI-60 one-dose screen, 48 h (100 = growth as untreated, 0 = no growth, -100 = all killed)
experimental_conditions: 10 µM unless noted
Compounds without any hit were thinned out: in the full panel of roughly 83,000, 20% have a hit. Calls of active or inactive are those of the source. Rule for the calls: active = growth percent below 10; inactive = the rest.

[
  {
    "compound": "CN(C)c1ccc(-n2nc3ccccc3n2)cc1",
    "quantity_name": "growth",
    "endpoint_result": "117% (inactive)"
  }
]

Memo: O=C(Nc1ccc(Cl)cc1)Nc1nc2ccc(OC(F)(F)F)cc2o1 , reported growth: 128% (inactive)

growth in this record for CCNCCCn1c2c(c3ccc(F)cc3c1=O)C(=O)c1cc(OC)cnc1-2 : -68.7% (active)

Input CCCCOP(=O)(OCCCC)C(C(=O)OCC)C(CC(=O)OCC)C(=O)OCC (centres undefined) . Output growth: 125% (inactive)

Reported growth ( CS(=O)(=O)N1CCN(Cc2cc3nc(-c4cccc5[nH]ncc45)nc(N4CCOCC4)c3s2)CC1 (tested in a mixture with another compound) ) = -15.2% (active)

Entry C(#Cc1ccccc1C#Cc1ccccn1)c1ccc(OCCCCCCOc2ccc(C#Cc3ccccc3C#Cc3ccccn3)cc2)cc1 — recorded growth = 99.6% (inactive)

The measured growth associated with COc1cccc(/C=C2\Cc3ccccc3C2=O)c1 reads 97% (inactive)

Noted for COc1ccc2nc(-c3ccc(Cl)cc3)cc(-c3nnc(SCC(=O)Nc4ccc(C(C)=O)cc4)n3-c3ccccc3)c2c1 : its growth reads 92.9% (inactive)

Per the records, this compound ( Cc1ccc(/C=C(/C#N)n2nnc3ncccc32)cc1 ) has growth equal to 22.7% (inactive)

Briefly, growth measured for O=Cc1ncc(-c2ccc(C(F)(F)F)cc2)c(NC2CCCCCC2)n1 : -92% [100 µM] (active)

So for FC(F)(F)c1ccc(-c2cnc(-c3nn[nH]n3)nc2NC2CCCCCC2)cc1 , the logged growth turned out to be 69.5% [50 µM] (inactive)
